# Measurement description: AUC in rat at 10 mg/kg, po
# Type: ADME, organism-based
# Design: dose 10 mg/kg, route oral
# Condition parameters: plasma

Structure string | AUC (ng·h/mL)
CCN(CC)C(=O)[C@@]1(c2ccccc2)C[C@H]1CN | 566

---

Collected Papp values appear next to each entry.
# Measurement description: Apparent permeability across human Caco-2 cells
# Format: ADME, cell-based
Assay readout: Papp (×10⁻⁶ cm/s)

Structure string | Unit abbreviation | Quantitative result
C=CCN(CCOC)C(=O)[C@@]1(c2ccsc2)C[C@H]1CN | ×10⁻⁶ cm/s | 2.4
NC[C@@H]1C[C@@]1(C(=O)N1C=COc2ccccc21)c1ccsc1 | ×10⁻⁶ cm/s | 20
C=CCN(CC=C)C(=O)[C@@]1(c2ccsc2)C[C@H]1CN | ×10⁻⁶ cm/s | 9.5
C#CCN(CC=C)C(=O)[C@@]1(c2ccsc2)C[C@H]1CN | ×10⁻⁶ cm/s | 9.6
C=CCN(CC)C(=O)[C@@]1(c2ccsc2)C[C@H]1CN | ×10⁻⁶ cm/s | 6.4
C=C(F)CN(CCOC)C(=O)[C@@]1(c2ccsc2)C[C@H]1CN | ×10⁻⁶ cm/s | 3.4
C=C(F)CN(C)C(=O)[C@@]1(c2ccsc2)C[C@H]1CN | ×10⁻⁶ cm/s | 13.8
C#CCN(CC#C)C(=O)[C@@]1(c2ccsc2)C[C@H]1CN | ×10⁻⁶ cm/s | 16.4
C=CCN(C(=O)[C@@]1(c2ccsc2)C[C@H]1CN)C1CC1 | ×10⁻⁶ cm/s | 5.3
NC[C@@H]1C[C@@]1(C(=O)N1Cc2ccccc2C1)c1ccsc1 | ×10⁻⁶ cm/s | 4.7
CCN(CC)C(=O)[C@@]1(c2ccsc2)C[C@H]1CN | ×10⁻⁶ cm/s | 4.7
C#CCN(CCOC)C(=O)[C@@]1(c2ccsc2)C[C@H]1CN | ×10⁻⁶ cm/s | 3.2

---

# Measurement description: Drug level in rat brain at 30 mg/kg, po at 1 hr
# Type: ADME, organism-based
# Parameters: dose 30 mg/kg, route oral
# Condition parameters: read-out: Drug uptake

Structure string | concentration at 1 h / ng/g
C=CCN(CC)C(=O)[C@@]1(c2ccsc2)C[C@H]1CN | 39

---

# Target desc: Sodium-dependent dopamine transporter (Homo sapiens, UniProt Q01959)
# Sequence (Q01959 whole entry): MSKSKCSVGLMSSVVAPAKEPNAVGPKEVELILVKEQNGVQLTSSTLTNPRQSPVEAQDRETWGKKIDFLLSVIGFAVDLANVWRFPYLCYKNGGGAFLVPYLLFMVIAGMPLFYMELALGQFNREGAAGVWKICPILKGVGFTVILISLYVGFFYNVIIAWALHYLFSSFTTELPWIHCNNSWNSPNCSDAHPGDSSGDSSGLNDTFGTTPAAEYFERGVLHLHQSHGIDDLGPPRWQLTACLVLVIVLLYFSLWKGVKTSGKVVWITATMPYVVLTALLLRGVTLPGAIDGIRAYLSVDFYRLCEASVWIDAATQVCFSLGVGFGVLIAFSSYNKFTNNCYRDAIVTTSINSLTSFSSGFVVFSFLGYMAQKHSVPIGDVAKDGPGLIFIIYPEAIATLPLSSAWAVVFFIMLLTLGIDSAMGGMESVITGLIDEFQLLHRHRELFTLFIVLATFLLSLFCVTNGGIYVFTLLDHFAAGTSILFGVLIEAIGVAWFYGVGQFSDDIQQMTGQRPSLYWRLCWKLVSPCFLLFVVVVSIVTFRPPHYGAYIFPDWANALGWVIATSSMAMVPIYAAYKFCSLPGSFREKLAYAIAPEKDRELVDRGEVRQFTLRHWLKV
# Measurement description: Inhibition of dopamine uptake at human DAT expressed in HEK293 cells

Structure string | IC50
C=CCN(CC)C(=O)[C@@]1(c2ccsc2)C[C@H]1CN | > 10 µM
C=C(F)CN(CCOC)C(=O)[C@@]1(c2ccsc2)C[C@H]1CN | > 10 µM
C=CCN(CC=C)C(=O)[C@@]1(c2ccsc2)C[C@H]1CN | 8.3 µM
CCN(CC)C(=O)[C@@]1(c2cc3ccccc3s2)C[C@H]1CN | 2.4 µM
NC[C@@H]1C[C@@]1(C(=O)N1CCc2ccccc2C1)c1ccsc1 | > 10 µM
CCN(CC)C(=O)[C@@]1(c2cccs2)C[C@H]1CN | > 10 µM
C#CCN(CC#C)C(=O)[C@@]1(c2ccsc2)C[C@H]1CN | > 10 µM
C=CCN(C)C(=O)[C@@]1(c2ccsc2)C[C@H]1CN | > 10 µM
C#CCN(C)C(=O)[C@@]1(c2ccsc2)C[C@H]1CN | > 10 µM
NC[C@@H]1C[C@@]1(C(=O)N1CCCc2ccccc21)c1ccsc1 | > 10 µM
CCN(CC)C(=O)[C@@]1(c2csc3ccccc23)C[C@H]1CN | > 10 µM
